test system: SF-268 CNS; assay: NCI tumour cell line growth inhibition, 48 h; in the data active = GI50 below about 0.43 µM; inactive = the rest
Labels: 1 (yes) (active), 0 (no) (inactive)

| molecule | discrete-label |
| --- | --- |
| COc1ccc(Nc2ccnc(NCCCNc3ccnc4cc(Cl)ccc34)n2)cc1 | 0 (no) |
| C#C[C@@]1(O)[C@@H](CO)O[C@@H](n2cc(F)c3c(N)ncnc32)[C@@H]1O | 0 (no) |
| C/C(=C\c1ccn(-c2ccc(N)cc2)n1)[C@@H]1C[C@@H]2O[C@]2(C)CCC[C@H](C)[C@H](O)[C@@H](C)C(=O)C(C)(C)[C@@H](O)CC(=O)O1 | 1 (yes) |
| COc1ccc(F)cc1C(=O)c1cnc(NC2CCN(S(C)(=O)=O)CC2)nc1N | 0 (no) |
| Cn1cc(C2=C(c3c4n(c5ccccc35)CCC(CN)CC4)C(=O)NC2=O)c2ccccc21 (stereo unspecified) | 0 (no) |
| CCOC(=O)c1c(Cl)c2c(n1Cc1cc(OC)cc(OC)c1)-c1oncc1CCC2 | 0 (no) |
| CN1CCN(Cc2ccc(NC(=O)c3cncc(C#Cc4c(N)ncc5cc(F)ccc45)c3)cc2C(F)(F)F)CC1 | 0 (no) |
| CC[C@H](C)C(=O)O[C@H]1CCC=C2C=C[C@H](C)C(CCC3C[C@@H](O)CC(=O)O3)[C@H]21 (stereo partly specified) | 0 (no) |
| Cc1ccc(S(=O)(=O)n2cc(C(=O)C(=O)Nc3ccncc3)c3ccccc32)cc1 | 0 (no) |
| C/C(=C\c1c[nH]c2ccccc12)[N+](=O)[O-] | 0 (no) |
| CC1(C)C2CCC13C(=O)C1OC3(C2)C2C(=O)c3c(O)ccc(O)c3C(=O)C12 (stereo unspecified) | 0 (no) |
